# system name: Polyunsaturated fatty acid 5-lipoxygenase (Rattus norvegicus, UniProt P12527)
# Sequence (P12527 whole entry): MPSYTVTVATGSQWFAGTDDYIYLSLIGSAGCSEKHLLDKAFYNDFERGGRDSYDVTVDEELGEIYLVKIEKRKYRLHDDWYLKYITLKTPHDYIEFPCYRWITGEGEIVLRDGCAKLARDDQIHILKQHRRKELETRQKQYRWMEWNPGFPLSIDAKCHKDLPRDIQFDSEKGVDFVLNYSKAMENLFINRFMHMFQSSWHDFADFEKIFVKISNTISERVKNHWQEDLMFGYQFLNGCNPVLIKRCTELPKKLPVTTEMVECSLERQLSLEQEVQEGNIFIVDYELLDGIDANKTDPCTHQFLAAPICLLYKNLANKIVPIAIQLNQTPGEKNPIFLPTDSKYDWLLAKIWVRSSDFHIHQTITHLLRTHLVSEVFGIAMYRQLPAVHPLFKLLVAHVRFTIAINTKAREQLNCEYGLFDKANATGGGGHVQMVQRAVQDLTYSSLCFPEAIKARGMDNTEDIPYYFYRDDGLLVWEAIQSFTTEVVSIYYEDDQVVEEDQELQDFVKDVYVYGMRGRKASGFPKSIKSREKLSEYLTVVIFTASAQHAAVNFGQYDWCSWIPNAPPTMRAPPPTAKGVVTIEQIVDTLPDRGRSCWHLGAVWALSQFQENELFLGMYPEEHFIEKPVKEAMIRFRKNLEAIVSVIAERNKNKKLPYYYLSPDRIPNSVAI
# assay notes: Compound was evaluated for its inhibitory activity against 5-LO (5-lipoxygenase) in intact RBL-1 cell line assay
measured property: IC50 (µM)
# output: bare number, implied unit µM

In [3]: df
Out[3]:
                            chemical_string  measured_property  result_number
0  COc1ccc2c(c1)c(/C=C1/SC(=S)NC1=O)c(C)n2C(=O)c1ccc(Cl)cc1               IC50            1.4

Given item `Cc1ccc(Cl)c(Nc2ccccc2/C=C2\SC(NC#N)=NC2=O)c1Cl` , the value recorded as its IC50 is 1.5
